# experimental-system: liver carnitine palmitoyl transferase 1 (L-CPT1) (Homo sapiens)
# Sequence (P50416 whole entry): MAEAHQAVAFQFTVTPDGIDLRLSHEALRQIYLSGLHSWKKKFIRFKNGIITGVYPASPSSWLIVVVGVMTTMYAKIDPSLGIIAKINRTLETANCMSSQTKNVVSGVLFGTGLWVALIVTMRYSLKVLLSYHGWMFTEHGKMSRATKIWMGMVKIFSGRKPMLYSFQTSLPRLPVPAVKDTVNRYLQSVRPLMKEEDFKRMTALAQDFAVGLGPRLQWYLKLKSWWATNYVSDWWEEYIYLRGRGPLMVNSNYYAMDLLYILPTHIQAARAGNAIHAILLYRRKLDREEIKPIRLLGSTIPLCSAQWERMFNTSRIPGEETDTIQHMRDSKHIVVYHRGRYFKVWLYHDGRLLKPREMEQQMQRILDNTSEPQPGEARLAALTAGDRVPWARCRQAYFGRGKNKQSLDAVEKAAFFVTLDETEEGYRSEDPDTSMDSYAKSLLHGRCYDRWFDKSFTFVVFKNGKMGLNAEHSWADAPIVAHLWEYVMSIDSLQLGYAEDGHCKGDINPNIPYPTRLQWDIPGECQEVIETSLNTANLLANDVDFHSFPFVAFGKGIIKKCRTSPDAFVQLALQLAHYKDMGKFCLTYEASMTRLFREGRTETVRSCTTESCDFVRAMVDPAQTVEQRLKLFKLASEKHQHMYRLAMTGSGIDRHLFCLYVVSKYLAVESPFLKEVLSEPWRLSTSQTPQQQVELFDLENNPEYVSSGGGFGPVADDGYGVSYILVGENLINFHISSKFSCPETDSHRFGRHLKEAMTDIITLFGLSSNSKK
# test-details: L-CPT1 inhibition, spectrophotometric CPT activity assay with DTNB (Ellman's reagent)
# condition-set: human liver CPT1 expressed in P. pastoris, cell extracts; carnitine 500 μM, palmitoyl-CoA 80 μM, DTNB 300 μM, pH 7.4
reported-endpoint: IC50 (nM)

Known IC50 results, listed for orientation:
O=C(COc1ccccc1)N1CCCC[C@@H]1c1nc(-c2ccc(OC(F)(F)F)cc2)cs1 [Example 4]    798
O=C(COc1ccccc1)N1CCCC[C@@H]1c1csc(-c2cccnc2)n1 [Example 31]    56.2
CS(=O)(=O)c1ccc(-c2csc([C@H]3CCCCN3C(=O)COc3ccccc3)n2)cc1 [Example 12]    141
O=C(COc1ccccc1)N1CCCC[C@@H]1c1csc(-c2n[nH]c3ccccc23)n1 [Example 26]    130
CC(=O)Nc1ccc(-c2nc([C@H]3CCCCN3C(=O)COc3ccccc3)cs2)cc1 [Example 25]    164
O=C(O)c1cccc(-c2csc([C@H]3CCCCN3C(=O)COc3ccccc3)n2)n1 [Example 42]    37.7
O=C(O)c1ccc(-c2csc([C@H]3CCCCN3C(=O)COc3ccccc3)n2)cc1 [Example 3]    129
O=C(COc1ccccc1)N1CCCC[C@@H]1c1nc(-c2ccc(Br)s2)cs1 [Example 23]    88.6

[I] O=C(COc1ccccc1)N1CCCC[C@@H]1c1nc(-c2ccncc2)cs1 [Example 10]
[II] COC(=O)c1cccc(-c2csc([C@H]3CCCCN3C(=O)COc3ccccc3)n2)n1 [Example 13]
In: Exercise: compare I and II ; which one has the greater IC50? Provide the label of your selected option as the answer.
Out: I
(I: 68 nM, II: 42.4 nM)
